test-protocol: pIC50 value for stimulation of TNF-alpha release in gamma-delta T cells, using a constrained maximum TNF-alpha release of 2700 pg/mL
Assay type: functional, cell-based
condition-summary: Homo sapiens, T-cell
pIC50: −log10 of the molar value.
readout-type: pIC50

INSERT INTO assay_data (compound, test_result) VALUES
  ('O=P(O)(O)C(N1CCSCC1)P(=O)(O)O', 3.22),
  ('Nc1ccc(CC(O)(P(=O)(O)O)P(=O)(O)O)cc1', 1.70),
  ('CN(CCc1ccccc1)CCC(O)(P(=O)(O)O)P(=O)(O)O', 4.64),
  ('CCCCCNC(P(=O)(O)O)P(=O)(O)O', 4.39),
  ('CC1CCN(C(P(=O)(O)O)P(=O)(O)O)CC1', 4.63),
  ('CCCCCCCCCNC(P(=O)(O)O)P(=O)(O)O', 3.77),
  ('O=P(O)(O)C(O)(Cc1cccnc1)P(=O)(O)O', 5.21),
  ('CCCCNC(P(=O)(O)O)P(=O)(O)O', 4.89),
  ('O=P(O)(O)C(Nc1cccnc1)P(=O)(O)O', 4.62),
  ('CCCN(CCC)C(P(=O)(O)O)P(=O)(O)O', 4.08),
  ('CC(CCCCc1ccccc1)CCC(O)(P(=O)(O)O)P(=O)(O)O (stereo unspecified)', 4.79);
